Data credit: the supplement of paper PMC11781733

System: Dugesia japonica
experiment_notes: C-shape incidence (% planarians (vehicle-normalised)); higher = higher incidence or increase relative to vehicle control
study_conditions: exposure time: 15 min to 3 h acute
Counter-ions that a name gives are not always drawn.
# C-shape incidence per record follows
Number only, please.

# molecule, C-shape incidence
rows = [
    ("CCCCNc1c(C(=O)OCC)c(C)nc2c1cnn2CC [tracazolate hydrochloride] (31.6 µM)", 79.2),
    ("O=C(CCCN1CC=C(n2c(=O)[nH]c3ccccc32)CC1)c1ccc(F)cc1 [droperidol] (1 µM)", 0),
    ("Cc1cc2c(s1)Nc1ccccc1N=C2N1CCN(C)CC1 [olanzapine] (100 µM)", 13.6),
    ("CN1CCN(C2=Nc3cc(Cl)ccc3Nc3ccccc32)CC1 [clozapine] (3.16 µM)", 0),
    ("O=C(CCCN1CCC(O)(c2ccc(Br)cc2)CC1)c1ccc(F)cc1 [bromperidol] (10 µM)", 0),
    ("Cc1ncc2n1-c1ccc(Cl)cc1C(c1ccccc1F)=NC2 [midazolam] (10 µM)", 0),
    ("O=C(CCCN1CCC(O)(c2ccc(Cl)cc2)CC1)c1ccc(F)cc1 [haloperidol] (1 µM)", 0),
    ("CN[C@H]1CC[C@@H](c2ccc(Cl)c(Cl)c2)c2ccccc21 [sertraline hydrochloride] (100 µM)", 0),
]

Now, please, on to the next molecule.
Record CN(C)CCCC1(c2ccc(F)cc2)OCc2cc(C#N)ccc21 (configuration not stated) [citalopram hydrobromide] (100 µM) , field C-shape incidence: 0

###

Test system: Dugesia japonica
experiment_notes: noxious heat displacement strength vs vehicle (% change vs vehicle); higher = higher incidence or increase relative to vehicle control
study_conditions: exposure time: 15 min to 3 h acute
Structures can show the parent of a compound that is named as a salt.
noxious heat displacement strength for assorted molecules
Reply: number alone, nothing else.

Recorded noxious heat displacement strength (molecule O=C(O)C(=O)O [oxalic acid] (316 µM) ): -67.5

According to the records, this molecule O=C(O)C(=O)O [oxalic acid] (100 µM) displays noxious heat displacement strength of -11.5

Notebook: O=C(CCCN1CCC(O)(c2ccc(Br)cc2)CC1)c1ccc(F)cc1 [bromperidol] (100 µM) , noxious heat displacement strength read as -48

Value of noxious heat displacement strength reported for the molecule CNCCC(Oc1ccc(C(F)(F)F)cc1)c1ccccc1 (stereo not given) [fluoxetine hydrochloride] (10 µM) is -40

Per the records, this molecule ( CN1CCN(C2=Nc3cc(Cl)ccc3Nc3ccccc32)CC1 [clozapine] (10 µM) ) has noxious heat displacement strength equal to -39.6

Looking up CN1C(=O)CN=C(c2ccccc2)c2cc(Cl)ccc21 [diazepam] (1 µM) , I found its noxious heat displacement strength recorded as -18.8

The molecule listed as O=C1CCc2ccc(OCCCCN3CCN(c4cccc(Cl)c4Cl)CC3)cc2N1 [aripiprazole] (31.6 µM) has a reported noxious heat displacement strength of -38.6

# noxious heat displacement strength (molecule: Cc1cc2c(s1)Nc1ccccc1N=C2N1CCN(C)CC1 [olanzapine] (10 µM) ) is -28.1

Form: molecule = O=C(O)/C=C\C(=O)O [maleic acid] (200 µM) ; noxious heat displacement strength = -39.3

So for Cc1ncc2n1-c1ccc(Cl)cc1C(c1ccccc1F)=NC2 [midazolam] (100 µM) , the logged noxious heat displacement strength turned out to be -48.3

GET /value?item= CN1CCN(CCCN2c3ccccc3Sc3ccc(Cl)cc32)CC1 [prochloroperazine] (31.6 µM) &field=noxious heat displacement strength returns -47.9

noxious heat displacement strength in this record for CN1CCN(C2=Nc3cc(Cl)ccc3Nc3ccccc32)CC1 [clozapine] (1 µM) : -43.5

Lab note: CN(C)CCCN1c2ccccc2CCc2ccccc21 [imipramine] (3.16 µM) gave noxious heat displacement strength of -7.92

For reference, reported noxious heat displacement strength for CNCCC(Oc1ccc(C(F)(F)F)cc1)c1ccccc1 (stereo not given) [fluoxetine hydrochloride] (100 µM) stands at -80.3

The molecule identified as CN1CCN(CCCN2c3ccccc3Sc3ccc(Cl)cc32)CC1 [prochloroperazine] (100 µM) registered its noxious heat displacement strength at -41.6

Sure, the documented noxious heat displacement strength for CN(C)CCCC1(c2ccc(F)cc2)OCc2cc(C#N)ccc21 (stereo not given) [citalopram hydrobromide] (316 µM) is -25.1
